The reported numbers originate from the supplement of paper PMC11061612.

- Test system: MFH-ino (Other Solid Carcinomas)
- PROTOCOL: combination Emax (second highest fraction inhibited in the dose matrix, 72 h); higher = more inhibition; extreme values may be limits of the assay
ENDPOINT_NAME: combination Emax

INSERT INTO results (molecule, val) VALUES
  ('NC1(C(=O)N[C@@H](CCO)c2ccc(Cl)cc2)CCN(c2ncnc3[nH]ccc23)CC1 [Capivasertib] + Cn1cnc2c(F)c(Nc3ccc(Br)cc3Cl)c(C(=O)NOCCO)cc21 [Selumetinib] (first compound max 10 µM, 7x7, partner max 10 µM)', 0.556),
  ('NC1(C(=O)N[C@@H](CCO)c2ccc(Cl)cc2)CCN(c2ncnc3[nH]ccc23)CC1 [Capivasertib] + CC(C)n1c(=O)n(C)c2cnc3cc(F)c(-c4ccc(OCCCN5CCCCC5)nc4)cc3c21 [AZD1390] (first compound max 10 µM, 7x7, partner max 0.3 µM)', 0.28),
  ('Cc1c2c(nn1C)CSCc1cc(n(C)n1)CSc1cc(c3ccccc3c1)OCCCc1c(C(=O)O)n(C)c3c-2c(Cl)ccc13 [AZD5991] + C=CCn1c(=O)c2cnc(Nc3ccc(N4CCN(C)CC4)cc3)nc2n1-c1cccc(C(C)(C)O)n1 [AZD1775] (first compound max 1 µM, partner max 1 µM)', 0.31),
  ('C[C@@H](c1ccc2nccn2c1)n1nnc2ncc(-c3cnn(C)c3)nc21 [Savolitinib] + Cc1c2c(nn1C)CSCc1cc(n(C)n1)CSc1cc(c3ccccc3c1)OCCCc1c(C(=O)O)n(C)c3c-2c(Cl)ccc13 [AZD5991] (first compound max 1 µM, 7x7, partner max 1 µM)', 0.207),
  ('CS(=O)(=O)CCNCc1ccc(-c2ccc3ncnc(Nc4ccc(OCc5cccc(F)c5)c(Cl)c4)c3c2)o1 [Lapatinib] + C[C@@H](Oc1cc(-c2cnn(C3CCNCC3)c2)cnc1N)c1c(Cl)ccc(F)c1Cl [Crizotinib] (first compound max 10 µM, 7x7, partner max 10 µM)', 0.25),
  ('COc1cccc(OCCCN)c1-c1cc(Nc2cnc(C#N)cn2)n[nH]1 [Prexasertib] + C[C@@H]1COCCN1C2=NC(=NC(=C2)C3(CC3)[S@](=N)(=O)C)C4=C5C=CNC5=NC=C4 [AZD6738] (first compound max 1 µM, 7x7, partner max 10 µM)', 0.572);

----------
Entries and their combination Emax values follow.
- Test system: NCI-H1781 (Lung Adenocarcinoma)
- PROTOCOL: combination Emax (second highest fraction inhibited in the dose matrix, 72 h); higher = more inhibition; extreme values may be limits of the assay
ENDPOINT_NAME: combination Emax

INSERT INTO results (compound, val) VALUES
  ('Cc1c2c(nn1C)CSCc1cc(n(C)n1)CSc1cc(c3ccccc3c1)OCCCc1c(C(=O)O)n(C)c3c-2c(Cl)ccc13 [AZD5991] + C[C@@H](Nc1cc(F)cc(F)c1)c1cc(C(=O)N(C)C)cc2c(=O)cc(N3CCOCC3)oc12 [AZD8186] (first compound max 1 µM, 7x7, partner max 3 µM)', 0.584),
  ('CC1(C)CCC(CN2CCN(c3ccc(C(=O)NS(=O)(=O)c4ccc(NCC5CCOCC5)c([N+](=O)[O-])c4)c(Oc4cnc5[nH]ccc5c4)c3)CC2)=C(c2ccc(Cl)cc2)C1 [Venetoclax] + Cc1cc2ncnn2cc1Nc1ncc2c(n1)n(C1CCOCC1)c(=O)n2C [AZD7648] (first compound max 1 µM, 7x7, partner max 10 µM)', 0.329),
  ('CC(=O)c1c(C)c2cnc(Nc3ccc(N4CCNCC4)cn3)nc2n(C2CCCC2)c1=O [Palbociclib] + CN(CC[C@H](CSC1=CC=CC=C1)NC2=C(C=C(C=C2)S(=O)(=O)NC(=O)C3=CC=C(C=C3)N4CCC(CC4)[C@H](C5=CC=CC=C5C6=CC=C(C=C6)Cl)O)S(=O)(=O)C(F)(F)F)CCO [AZD4320] (first compound max 10 µM, 7x7, partner max 1 µM)', 0.476);

----------
- Tested on: COR-L95 (Small Cell Lung Carcinoma)
- PROTOCOL: combination Emax (second highest fraction inhibited in the dose matrix, 72 h); higher = more inhibition; extreme values may be limits of the assay
// combination Emax lookup, one value per entry
ENDPOINT_NAME: combination Emax

INSERT INTO results (compound, endpoint_name, val) VALUES
  ('CN(CCO)CC[C@H](CSc1ccccc1)Nc1ccc(S(=O)(=O)NC(=O)c2ccc(N3CCC([C@@H](O)c4ccccc4-c4ccc(Cl)cc4)CC3)cc2)cc1S(=O)(=O)C(F)(F)F [AZD4320] + C=CCn1c(=O)c2cnc(Nc3ccc(N4CCN(C)CC4)cc3)nc2n1-c1cccc(C(C)(C)O)n1 [AZD1775] (first compound max 1 µM, partner max 1 µM)', 'combination Emax', 1),
  ('CC1(C)CCC(CN2CCN(c3ccc(C(=O)NS(=O)(=O)c4ccc(NCC5CCOCC5)c([N+](=O)[O-])c4)c(Oc4cnc5[nH]ccc5c4)c3)CC2)=C(c2ccc(Cl)cc2)C1 [Venetoclax] + CN(C)CCCOc1ccc(-c2ccc3ncc4c(c3c2)n(C2CCOCC2)c(=O)n4C)cn1 [AZD0156] (first compound max 1 µM, 7x7, partner max 1 µM)', 'combination Emax', 0.535),
  ('CN(CCO)CC[C@H](CSc1ccccc1)Nc1ccc(S(=O)(=O)NC(=O)c2ccc(N3CCC([C@@H](O)c4ccccc4-c4ccc(Cl)cc4)CC3)cc2)cc1S(=O)(=O)C(F)(F)F [AZD4320] + C[C@@H](Nc1cc(F)cc(F)c1)c1cc(C(=O)N(C)C)cc2c(=O)cc(N3CCOCC3)oc12 [AZD8186] (first compound max 1 µM, 7x7, partner max 3 µM)', 'combination Emax', 1),
  ('Cc1c2c(nn1C)CSCc1cc(n(C)n1)CSc1cc(c3ccccc3c1)OCCCc1c(C(=O)O)n(C)c3c-2c(Cl)ccc13 [AZD5991] + CCN(CCO)CCCOc1ccc2c(Nc3cc(CC(=O)Nc4cccc(F)c4)[nH]n3)ncnc2c1 [AZD2811] (first compound max 1 µM, 7x7, partner max 1 µM)', 'combination Emax', 0.449),
  ('CN(CCO)CC[C@H](CSc1ccccc1)Nc1ccc(S(=O)(=O)NC(=O)c2ccc(N3CCC([C@@H](O)c4ccccc4-c4ccc(Cl)cc4)CC3)cc2)cc1S(=O)(=O)C(F)(F)F [AZD4320] + CCN(CCO)CCCOc1ccc2c(Nc3cc(CC(=O)Nc4cccc(F)c4)[nH]n3)ncnc2c1 [AZD2811] (first compound max 1 µM, 7x7, partner max 1 µM)', 'combination Emax', 1),
  ('CC1(C)CCC(CN2CCN(c3ccc(C(=O)NS(=O)(=O)c4ccc(NCC5CCOCC5)c([N+](=O)[O-])c4)c(Oc4cnc5[nH]ccc5c4)c3)CC2)=C(c2ccc(Cl)cc2)C1 [Venetoclax] + COc1cc(Nc2ncc3c(n2)-c2ccc(Cl)cc2C(c2c(F)cccc2OC)=NC3)ccc1C(=O)O [Alisertib] (first compound max 1 µM, 7x7, partner max 10 µM)', 'combination Emax', 0.705);

----------
- Test system: COR-L95 (Small Cell Lung Carcinoma)
- PROTOCOL: Bliss excess, mean over the matrix (fraction); higher = more synergy
ENDPOINT_NAME: Bliss excess

INSERT INTO assay_data (molecule, endpoint_name, val) VALUES
  ('NC1(C(=O)N[C@@H](CCO)c2ccc(Cl)cc2)CCN(c2ncnc3[nH]ccc23)CC1 [Capivasertib] + CC(C)n1c(=O)n(C)c2cnc3cc(F)c(-c4ccc(OCCCN5CCCCC5)nc4)cc3c21 [AZD1390] (first compound max 10 µM, 7x7, partner max 0.3 µM)', 'Bliss excess', -0.0425),
  ('CCN(CCO)CCCOc1ccc2c(Nc3cc(CC(=O)Nc4cccc(F)c4)[nH]n3)ncnc2c1 [AZD2811] + C[C@@H]1COCCN1C2=NC(=NC(=C2)C3(CC3)[S@](=N)(=O)C)C4=C5C=CNC5=NC=C4 [AZD6738] (first compound max 1 µM, 7x7, partner max 10 µM)', 'Bliss excess', -0.0658),
  ('C[C@@H](Nc1cc(F)cc(F)c1)c1cc(C(=O)N(C)C)cc2c(=O)cc(N3CCOCC3)oc12 [AZD8186] + C1CN(CCC1(C(=O)N[C@@H](CCO)C2=CC=C(C=C2)Cl)N)C3=NC=NC4=C3C=CN4 [AZD5363] (first compound max 10 µM, 7x7, partner max 10 µM)', 'Bliss excess', -0.0781),
  ('O=C(c1cc(Cc2n[nH]c(=O)c3ccccc23)ccc1F)N1CCN(C(=O)C2CC2)CC1 [Olaparib] + Cc1c2c(nn1C)CSCc1cc(n(C)n1)CSc1cc(c3ccccc3c1)OCCCc1c(C(=O)O)n(C)c3c-2c(Cl)ccc13 [AZD5991] (first compound max 10 µM, 7x7, partner max 1 µM)', 'Bliss excess', -0.0514),
  ('Cc1cc2ncnn2cc1Nc1ncc2c(n1)n(C1CCOCC1)c(=O)n2C [AZD7648] + CN(C)CCCOc1ccc(-c2ccc3ncc4c(c3c2)n(C2CCOCC2)c(=O)n4C)cn1 [AZD0156] (first compound max 10 µM, 7x7, partner max 1 µM)', 'Bliss excess', -0.0218),
  ('C=CCn1c(=O)c2cnc(Nc3ccc(N4CCN(C)CC4)cc3)nc2n1-c1cccc(C(C)(C)O)n1 [AZD1775] + C[C@@H]1COCCN1C2=NC(=NC(=C2)C3(CC3)[S@](=N)(=O)C)C4=C5C=CNC5=NC=C4 [AZD6738] (first compound max 1 µM, partner max 10 µM)', 'Bliss excess', -0.101);
